Test system: MS2 coat protein
Assay: apparent Kd, MS2 coat protein; higher = weaker binding; RNA-MaP array; theophylline 2 mM where present
Conditions: designed as: OFF switch for theophylline; no ligand
Values of apparent Kd greater than or equal to 20 nM map to label 1; values below map to label 0.

Worked set:
>>> answer_label("AUAUGAUCAUGUGAUACCAGAAAUGGUAGUCCUCGCUGGAUUACAUGAGGAUCACCCAUGUUCCCUUGGCAGCAUAUGAUCAUAU")
"label 1"
>>> answer_label("AGCAUUGUAACAGAUACCAGACUUUUAAUGCCUCUAAUAACAUGAGGAUCACCCAUGUAUGUCCCUUGGCAGCUGUUAUGAUGCA")
"label 1"
>>> answer_label("AGCGCUAUGCAUGAUACCAGCUACAUGAGGAUCACCCAUGUGCGUCAGAAAUGACUGUGUAGCCCUUGGCAGCAUAAAGCAUGUA")
"label 0"
>>> answer_label("GCCCUUGGCAGCGAUACCAGCCAAAAUUAAAAUAAACCUCUACAUGAGGAUCACCCAUGUGGCCCUUGGCAGCGAUACCAGCAAA")
"label 1"
>>> answer_label("CAUGAAGUAACUGAUACCAGUGUACACAUGAGGAUCACCCAUGUGUUGGGUUUUGUUGUACACCCUUGGCAGCAGAAUCUUUAUG")
"label 1"
>>> answer_label("ACGUCACGUUUACUCGUGGUUUCGAUCGAUACCAGUAGCGAGAGUUACCCUUGGCAGCGACAUGAGGAUCACCCAUGUGCGAAGA")
"label 0"
>>> answer_label("AUUAUCAUGGUCAUAUAUAUAUCUUCAGAUACCAGACUAUAUUAAGUCCCUUGGCAGCUGUUACAUGAGGAUCACCCAUGUUAUA")
"label 1"
>>> answer_label("AGCGACAUGCAUGAUACCAGCUACAUGAGGAUCACCCAUGUACGUCAGUAAUGACUGUGUAGCCCUUGGCAGCAUAGAGCAUGUU")
"label 0"
>>> answer_label("ACAUGAGGAUCACCCAUGUGGCGUCUUGAUACCAGACGAGAAGUAGUCCCUUGGCAGCAAAUACGUGAGGAUCACACAUGUGCGA")
"label 1"
>>> answer_label("ACAUGAGGAUCACCCAUGUGGCGACUUGAUACCAGACCCGCACUAGUCCCUUGGCAGCAACUACGUGUGGGACACCCAUGUGAAG")
"label 1"

Query string: Does UGACAUUGCUCAGAUACCAGACAUGAGGAUCACCCAUGUACCAAGGUAAGAAAAUAACAUGUCCCUUGGCAGCUGAGCAAUGUCU have a reported apparent Kd of at least 20 nM?
Result string: label 0

Query string: Does AUAUUAGACCUGGAUACCAGCGACAUGAGGAUCACCCAUGUAUGUGCAUCAGCCAUGAUAUGCCCUUGGCAGCCACCGAGGUCGU have a reported apparent Kd of at least 20 nM?
Result string: label 0

Query string: Does AUAGUCUUGAGUGAUACCAGACUACAUGAGGAUCACCCAUGUUUCUUUUGGUUAUCAUGUGUCCCUUGGCAGCACGCAUGUAUAG have a reported apparent Kd of at least 20 nM?
Result string: label 0

Query string: Does CAUGAAGUAACUGAUACCAGUGUACUGACAUGAGGAUCACCCAUGUUGGGUUUUGUUGUACACCCUUGGCAGCAGAAUCUUUAUG have a reported apparent Kd of at least 20 nM?
Result string: label 1

---

Test system: MS2 coat protein
Experiment: apparent Kd, MS2 coat protein; higher = weaker binding; RNA-MaP array; FMN 200 µM where present
Settings: designed as: OFF switch for flavin mononucleotide; no ligand
measurement name: apparent Kd (nM)
Numeric only. Scale: nM

>>> test_value("GGUUGUCAUCGUCAUCCUUUCGGUACAUGAGGAUCACCCAUGUAGGAUAUGCUGCUCUCGGUGUGGCAGAAGGGCGUGUGUGUU")
24.4
>>> test_value("CUUUUGUGAGGAUAUUAGUAGUAAAUUAAUAAAAUUACUACUGAGAAGGCACAUGAGGAUCACCCAUGUUCCUC")
30.8
>>> test_value("AAUUUGGUCGUAGGAUAUCGGAAGCGGUGCGAACGAGAAGGGCGACAUGAGGAUCACCCAUGUAGCCACGAAGGCGAUCCUUGG")
9.75
>>> test_value("GAUCAACAUGAGGAUCACCCAUGUGAGGAUAUGAUACUAUGUACUUCGGUACAUAGUAUCAGAAGGCACAUUGA")
87.2

Query string: // lookup apparent Kd for UAAGUGUGAGGAUAUGGUAAAGAUAAGAUGAUGAAAGAACUCCAGAAGGCACAUGAGGAUCACCCAUGUAGAUG
Result string: 39.4

Query string: // lookup apparent Kd for CUUUCGUGAGGAUAUGAAACUUCGAUCGUGAGAUCGAGGCUACAGAAGGCACAUGAGGAUCACCCAUGUUCCUC
Result string: 34.6

Query string: // lookup apparent Kd for GCUGACGAUGUAGGAUAUCAGUAUAAUAAAUACUGAGAAGGACAUGAGGAUCACCCAUGUAAAACUCCGUCAGCGAGGAAACUC
Result string: 16.6

Query string: // lookup apparent Kd for AAAAUGUAAGGAUAUGCUGCUCGUCACUUGCGUGAUGAGUAGCAGAAGGUACAUGAGGAUCACCCAUGUAAAGA
Result string: 32.7

Query string: // lookup apparent Kd for UUCGGCAGUGCAGGAUAUCUAGAGAAACACCUAAGAGAAGGGCAAACAUGAGGAUCACCCAUGUUUGGCGUGAGGUGAAGUUAG
Result string: 5.99

Query string: // lookup apparent Kd for CGACCACAUGAGGAUCACCCAUGUAAGGAUAUAUUGAAUGAGCCGGCGGCAGUAAAAGAUAGAAGGUGCGUGUA
Result string: 23.1

Query string: // lookup apparent Kd for UCGCGGGAGCAGAAGGGAUAGGCCUAUUGUCGUGGAGUCUAAACUUAACAUGAGGAUCACCCAUGUCAGGAUAUGCCCACGCGA
Result string: 9.89

Query string: // lookup apparent Kd for GUCCGGCGUGUAGGAUAUGGAUCCGAUUAGGAUCCAGAAGGACAUGAGGAUCACCCAUGUACAUGUAAACAGUCAUCACCGGAU
Result string: 7.5

Query string: // lookup apparent Kd for CUUCGACAUGAGGAUCACCCAUGUCAGGAUAUUGUUUAUCUGGUGUUGUCCAGAUAUGCAAGAAGGGAUGUGUG
Result string: 38.4

Query string: // lookup apparent Kd for GGACGGUUAGUCAGGAUAUGCUCUACCUCGGUAGAGCAGAAGGGACAUGAGGAUCACCCAUGUGAUAACUGUUC
Result string: 27.4

Query string: // lookup apparent Kd for CUUCUGUAAGGAUAUGUAUGCUCCUGGUAUGUCGCGAGGAGACAGAAGGUACAUGAGGAUCACCCAUGUGGGCG
Result string: 168

Query string: // lookup apparent Kd for UGCCGUAGAGGAUAUACAUAGAAAUAGAUUCAUGUAAAACUACAUGAGGAUCACCCAUGUAGAAGGCUAUGGCU
Result string: 21.6

Query string: // lookup apparent Kd for UGCUGUGUCAGAGGAUAUACUCUAAUAAUCCAUUGCAAAUAGCGAUGGACAUGAGGAUCACCCAUGUAGAAGGCUGUCACAGCA
Result string: 73.6

Query string: // lookup apparent Kd for UUGUUCUGAGGAUAUACAUGAGGAUCACCCAUGUGUUUCUGCUAGGAGACUAGCGAAUGUAGAAGGCUGUUCUC
Result string: 19.4

Query string: // lookup apparent Kd for UCUGCAUAGUCAGGAUAUGCAAAAUUUAUUUUCUUCGGAAAAUAAAUAACAUGAGGAUCACCCAUGUAGAAGGGACUGUGCAGA
Result string: 16.9

Query string: // lookup apparent Kd for UAUUAAUGCAAGGAUAUGCUUUUAAUUUUUUUUGCAGAAGGUGCAACAUGAGGAUCACCCAUGUUUCCGGGUAU
Result string: 26.5

Query string: // lookup apparent Kd for AGAUAGUCAGGAUAUACAUGGAUGAUACACGUAUUUCCACUACAUGAGGAUCACCCAUGUAGAAGGGACUAUCA
Result string: 27.6

Query string: // lookup apparent Kd for UCAUGUUAGCAGGAUAUGCUAUUUAUCUUUUAUGCAGAAGGGCUUACAUGAGGAUCACCCAUGUAUUAAGUCUU
Result string: 18.9

Query string: // lookup apparent Kd for GACAUCGCAGGAUAUUAGGGUUUGUACAUGAGGAUCACCCAUGUUAAUUGGGUUAAUGUCUAAGAAGGGCGGUGUC
Result string: 147

Query string: // lookup apparent Kd for GAGUUGAACGAGAAGGCCACUACAUGAGGAUCACCCAUGUCGUAGAGUAUUGGAGGAUAUCGAUAGGCGUCUCAUGAGGACAUA
Result string: 25.1

Source: the EternaBench riboswitch data
